IC50 tested on Signal transducer and activator of transcription 3 (Homo sapiens, UniProt P40763): recorded values
Sequence (P40763 whole entry): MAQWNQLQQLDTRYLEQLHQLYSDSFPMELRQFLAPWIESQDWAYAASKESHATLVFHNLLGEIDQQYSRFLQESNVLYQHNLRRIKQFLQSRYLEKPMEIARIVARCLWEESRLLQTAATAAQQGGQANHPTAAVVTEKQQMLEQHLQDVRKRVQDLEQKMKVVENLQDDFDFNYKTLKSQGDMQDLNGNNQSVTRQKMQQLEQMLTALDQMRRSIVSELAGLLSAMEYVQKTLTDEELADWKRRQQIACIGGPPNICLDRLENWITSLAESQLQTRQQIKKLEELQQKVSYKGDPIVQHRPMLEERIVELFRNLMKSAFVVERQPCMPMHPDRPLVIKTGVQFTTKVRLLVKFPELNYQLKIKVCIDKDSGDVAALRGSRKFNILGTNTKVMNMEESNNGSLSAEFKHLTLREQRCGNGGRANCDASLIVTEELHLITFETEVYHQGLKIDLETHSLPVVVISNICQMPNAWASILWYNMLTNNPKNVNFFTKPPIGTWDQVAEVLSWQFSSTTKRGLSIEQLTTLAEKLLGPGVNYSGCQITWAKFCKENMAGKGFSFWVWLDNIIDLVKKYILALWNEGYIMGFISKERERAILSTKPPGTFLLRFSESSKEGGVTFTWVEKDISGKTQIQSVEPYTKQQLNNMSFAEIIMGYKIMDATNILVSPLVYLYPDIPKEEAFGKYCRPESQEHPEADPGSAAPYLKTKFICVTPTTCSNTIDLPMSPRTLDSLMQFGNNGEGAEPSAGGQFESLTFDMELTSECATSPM
recorded-endpoint: IC50 (nM)

smiles-input | value
CC(C)C[C@H](NC(=O)/C=C/c1ccc(OP(=O)(O)O)cc1)C(=O)N1CCC[C@H]1C(=O)N[C@H](C)COC(N)=O | 797
CC(C)C[C@H](NC(=O)/C=C/c1ccc(OP(=O)(O)O)cc1)C(=O)N1CCC[C@H]1C(=O)NCCOC(N)=O | 360
CC(C)C[C@H](NC(=O)/C=C/c1ccc(OP(=O)(O)O)cc1)C(=O)N1CCC[C@H]1C(=O)N[C@@H](CCC(N)=O)CN1CCN(C)CC1 | 1310
CC(C)C[C@H](NC(=O)/C=C/c1ccc(OP(=O)(O)O)cc1)C(=O)N1CCC[C@H]1C(=O)N[C@H](COCc1ccccc1)COC(N)=O | 454

* * *

pIC50: −log10 of the molar value.
What follows is a collection of pIC50 values obtained with Signal transducer and activator of transcription 3 (Homo sapiens).
recorded-endpoint: pIC50

smiles-input | value
CC(C)C[C@H](NC(=O)/C=C/c1ccc(OP(=O)(O)O)cc1)C(=O)N1CCC[C@H]1C(=O)N[C@@H](CCC(N)=O)CN1CCOCC1 | 5.82
CC(C)C[C@H](NC(=O)/C=C/c1ccc(OP(=O)(O)O)cc1)C(=O)N1CCC[C@H]1C(=O)N[C@@H](CCC(N)=O)COC(N)=O | 6.21
CC(C)C[C@H](NC(=O)/C=C/c1ccc(OP(=O)(O)O)cc1)C(=O)N1CCC[C@H]1C(=O)N[C@@H](CCC(N)=O)Cc1ccc(O)cc1 | 6.07
CC(C)C[C@H](NC(=O)/C=C/c1ccc(OP(=O)(O)O)cc1)C(=O)N1C[C@H]2C[C@H]2[C@H]1C(=O)N[C@H](C)CCC(N)=O | 6.76
CC(C)C[C@H](NC(=O)/C=C/c1ccc(OP(=O)(O)O)cc1)C(=O)N1C[C@H]2C[C@H]2[C@H]1C(=O)NCCCC(N)=O | 6.52
CC(C)C[C@H](NC(=O)/C=C/c1ccc(OP(=O)(O)O)cc1)C(=O)N1CCC[C@H]1C(=O)N[C@H](CN)CCC(N)=O | 5.91
CC(C)C[C@H](CCC(N)=O)NC(=O)[C@@H]1CCCN1C(=O)[C@H](CC(C)C)NC(=O)/C=C/c1ccc(OP(=O)(O)O)cc1 | 5.31

Recorded values, source ChEMBL document CHEMBL1155214.
